# Tested on: Jurkat
# EXPERIMENTAL DETAILS: mean cell size (FSC-A) relative to DMSO control (fraction of control); higher = larger cells
# MEASUREMENT SETUP: 48 h
Counter-ions that a name gives are not always drawn.
Give mean cell size for every item shown.
Give your answer as a number; write no unit.

[Q] Answer with the recorded mean cell size for the molecule listed here: COc1ccc(Cl)cc1C(=O)NCCc1ccc(S(=O)(=O)NC(=O)NC2CCCCC2)cc1 [Glyburide] (concentration: 25 µM)
[A] 1.02

[Q] Using known records, supply mean cell size for N=C(N)NC(=O)c1nc(Cl)c(N)nc1N [Amiloride·HCl·2H2O] (concentration: 25 µM)
[A] 0.945

[Q] Give the reported mean cell size for this molecule. CC(C)c1nc(CN(C)C(=O)N[C@H](C(=O)N[C@@H](Cc2ccccc2)C[C@H](O)[C@H](Cc2ccccc2)NC(=O)OCc2cncs2)C(C)C)cs1 [Ritonavir] (concentration: 25 µM)
[A] 0.999

[Q] Read the entry CC(CN1c2ccccc2Sc2ccccc21)N(C)C (configuration not stated) [Promethazine·HCl] (concentration: 25 µM) and write its reported mean cell size.
[A] 0.994

[Q] Check the records and state mean cell size for CN1CCC(=C2c3ccccc3C=Cc3ccccc32)CC1 [Cyproheptadine·HCl Sesquihydrate] (concentration: 25 µM)
[A] 0.935

[Q] Identify the reported mean cell size for the following entry. CCCCC(C)(O)C/C=C/[C@H]1[C@H](O)CC(=O)[C@@H]1CCCCCCC(=O)OC (mixture of isomers) [Misoprostol] (concentration: 25 µM)
[A] 0.939

[Q] Specify measured mean cell size for Clc1ccc(CCC(Cn2ccnc2)Sc2c(Cl)cccc2Cl)cc1 (configuration not stated) [Butoconazole Nitrate] (concentration: 25 µM) .
[A] 0.953

[Q] Retrieve mean cell size measured for CCCCNc1cc(C(=O)O)cc(S(N)(=O)=O)c1Oc1ccccc1 [Bumetanide] (concentration: 25 µM) and print it.
[A] 0.952

[Q] Give the reported mean cell size for this molecule. CC(C)(S)[C@@H](N)C(=O)O [Penicillamine (D-Penicillamine)] (concentration: 25 µM)
[A] 0.954

[Q] Output measured mean cell size for this item: CC1CNc2c(cccc2S(=O)(=O)N[C@@H](CCCNC(=N)N)C(=O)N2CC[C@@H](C)C[C@@H]2C(=O)O)C1 (some centres not stated) [Argatroban] (concentration: 25 µM)
[A] 0.938

[Q] Please list mean cell size recorded for the molecule CC(C)[C@H]1CC[C@H](C(=O)N[C@H](Cc2ccccc2)C(=O)O)CC1 [Nateglinide] (concentration: 25 µM)
[A] 0.966

[Q] Kindly indicate its recorded mean cell size. Item: CC[C@@H]1/C=C(\C)C[C@H](C)C[C@H](OC)[C@H]2O[C@@](O)(C(=O)C(=O)N3CCCC[C@H]3C(=O)O[C@H](/C(C)=C/[C@@H]3CC[C@H](Cl)[C@H](OC)C3)[C@H](C)[C@@H](O)CC1=O)[C@H](C)C[C@@H]2OC [Pimecrolimus] (concentration: 25 µM)
[A] 0.822

====

Provide the reported cell count of each item.
# System: Jurkat
# EXPERIMENTAL DETAILS: cell count relative to DMSO control (fraction of control); higher = more cells (less growth inhibition)
# MEASUREMENT SETUP: 48 h
Give a plain numeric answer without units written out.

[Q] Give cell count for Nc1nc2[nH]cc(CCc3ccc(C(=O)N[C@@H](CCC(=O)O)C(=O)O)cc3)c2c(=O)[nH]1 [Pemetrexed Disodium] (concentration: 2.5 µM)
[A] 0.247

[Q] Answer with the recorded cell count for the compound listed here: O=C(O)c1cccnc1 [Niacin (Known As Vitamin B3, Nicotinic Acid And Vitamin Pp)] (concentration: 25 µM)
[A] 0.426

[Q] Return the recorded cell count value; entry: CO[C@H]1/C=C/O[C@@]2(C)Oc3c(C)c(O)c4c(O)c(c(/C=N/N5CCN(C6CCCC6)CC5)c(O)c4c3C2=O)NC(=O)/C(C)=C\C=C\[C@H](C)[C@H](O)[C@@H](C)[C@@H](O)[C@@H](C)[C@H](OC(C)=O)[C@@H]1C [Rifapentine] (concentration: 25 µM)
[A] 0.275

[Q] # return recorded cell count for entry C[C@@H]1O[C@@H]1P(=O)(O)O [Fosfomycin Calcium] (concentration: 25 µM)
[A] 0.474

[Q] Give cell count for the following compound: NC[C@H]1CC[C@H](C(=O)O)CC1 [Tranexamic Acid] (concentration: 25 µM)
[A] 0.542

[Q] Specify measured cell count for O=C(O)c1cn(C2CC2)c2cc(N3CCNCC3)c(F)cc2c1=O [Ciprofloxacin] (concentration: 25 µM) .
[A] 1.04

====

# System: Jurkat
# EXPERIMENTAL DETAILS: cell count relative to DMSO control (fraction of control); higher = more cells (less growth inhibition)
# MEASUREMENT SETUP: 48 h
Structures can show the parent of a compound that is named as a salt.
READOUT TYPE: cell count
Write no unit; give the number alone.

[Q] Give the reported cell count for this compound. COC(=O)[C@H]1[C@H]2C[C@@H]3c4[nH]c5cc(OC)ccc5c4CCN3C[C@H]2C[C@@H](OC(=O)c2cc(OC)c(OC)c(OC)c2)[C@@H]1OC [Reserpine] (concentration: 25 µM)
[A] 0.616

[Q] Return reported cell count. Input compound: COc1ccccc1Oc1c(NS(=O)(=O)c2ccc(C(C)(C)C)cc2)nc(-c2ncccn2)nc1OCCO [Bosentan] (concentration: 25 µM)
[A] 0.675

[Q] Identify the reported cell count for the following entry. C[C@@H](CN1CC(=O)NC(=O)C1)N1CC(=O)NC(=O)C1 [Dexrazoxane] (concentration: 25 µM)
[A] 0.411

[Q] Using known records, supply cell count for C[C@]12C=CC(=O)N[C@@H]1CC[C@@H]1[C@@H]2CC[C@]2(C)[C@@H](C(=O)Nc3cc(C(F)(F)F)ccc3C(F)(F)F)CC[C@@H]12 [Dutasteride] (concentration: 25 µM)
[A] 0.636

[Q] Provide measured cell count value, entry: CC(C)(C)NC[C@H](O)COc1cccc2c1CCCC2=O [Levobunolol·HCl] (concentration: 25 µM)
[A] 1.11

[Q] For COc1ccc(C[C@@H]2c3cc(OC)c(OC)cc3CC[N@+]2(C)CCC(=O)OCCCCCOC(=O)CC[N@@+]2(C)CCc3cc(OC)c(OC)cc3[C@H]2Cc2ccc(OC)c(OC)c2)cc1OC [Cisatracurium Besylate] (concentration: 25 µM) , write its cell count.
[A] 0.624

[Q] Kindly indicate its recorded cell count. Item: CCC[C@H](N[C@@H](C)C(=O)N1[C@H](C(=O)O)C[C@@H]2CCCC[C@@H]21)C(=O)OCC [Perindopril Erbumine] (concentration: 25 µM)
[A] 0.637

[Q] Provide measured cell count value, entry: COc1c(N2CCNC(C)C2)c(F)cc2c(=O)c(C(=O)O)cn(C3CC3)c12 (stereo unspecified) [Gatifloxacin] (concentration: 25 µM)
[A] 0.661

[Q] Find the measured cell count of C#C[C@]1(O)CC[C@H]2[C@@H]3CCC4=Cc5oncc5C[C@]4(C)[C@H]3CC[C@@]21C [Danazol] (concentration: 25 µM) and report it.
[A] 0.92

[Q] State its cell count: CCC[C@@H]1C[C@@H](C(=O)N[C@@H]([C@H]2O[C@H](SC)[C@H](O)[C@@H](O)[C@H]2O)[C@@H](C)O)N(C)C1 [Lincomycin·HCl] (concentration: 25 µM)
[A] 0.754

[Q] Determine from records and report cell count for CC[C@@H]([C@H](C)O)n1ncn(-c2ccc(N3CCN(c4ccc(OC[C@@H]5CO[C@@](Cn6cncn6)(c6ccc(F)cc6F)C5)cc4)CC3)cc2)c1=O [Posaconazole] (concentration: 25 µM)
[A] 1.02

====

# System: Jurkat
# EXPERIMENTAL DETAILS: mean cell size (FSC-A) relative to DMSO control (fraction of control); higher = larger cells
# MEASUREMENT SETUP: 48 h
Counter-ions that a name gives are not always drawn.
Assign True to entries whose mean cell size meets or exceeds 1; assign False to the rest.

[Q] Tell me whether mean cell size is at least 1 here: NC(=O)N[C@@H](CCC(=O)O)C(=O)O [Carglumic Acid] (concentration: 25 µM)
[A] False

[Q] Is mean cell size for CCOc1ccc2ccccc2c1C(=O)N[C@@H]1C(=O)N2[C@@H]1SC(C)(C)[C@@H]2C(=O)O [Nafcillin·Na] (concentration: 25 µM) at or above 1?
[A] False

[Q] Decide: mean cell size of CCn1cc(C(=O)O)c(=O)c2cc(F)c(N3CCNCC3)cc21 [Norfloxacin] (concentration: 25 µM) >= 1?
[A] False

[Q] State whether the measured mean cell size reaches 1, counting equality as reaching it, for CN(C)CCOC(c1ccc(Cl)cc1)c1ccccn1 (configuration not stated) [Carbinoxamine Maleate] (concentration: 25 µM)
[A] False

[Q] Determine whether this compound has mean cell size no lower than 1: CN(C)c1ccc(O)c2c1C[C@H]1C[C@H]3[C@H](N(C)C)C(=O)C(C(N)=O)=C(O)[C@@]3(O)C(=O)C1=C2O [Minocycline] (concentration: 2.5 µM)
[A] False

[Q] In plain terms: is recorded mean cell size at least 1 for CC1COc2c(N3CCN(C)CC3)c(F)cc3c(=O)c(C(=O)O)cn1c23 (configuration not stated) [Ofloxacin] (concentration: 25 µM) ?
[A] False

[Q] Check if mean cell size >= 1 (inclusive). Item: NS(=O)(=O)c1cc2c(cc1C(F)(F)F)NCNS2(=O)=O [Hydroflumethiazide] (concentration: 25 µM)
[A] False

[Q] Is reported mean cell size greater than or equal to 1 here: CC(C)c1c(C(=O)Nc2ccccc2)c(-c2ccccc2)c(-c2ccc(F)cc2)n1CC[C@@H](O)C[C@@H](O)CC(=O)O [Atorvastatin Calcium] (concentration: 25 µM)
[A] True

[Q] Reported mean cell size at or above 1? Clc1ccc(COC(Cn2ccnc2)c2ccc(Cl)cc2Cl)cc1 (configuration not stated) [Econazole Nitrate] (concentration: 25 µM)
[A] False

[Q] # check: mean cell size of C[C@@H](CN1CC(=O)NC(=O)C1)N1CC(=O)NC(=O)C1 [Dexrazoxane] (concentration: 25 µM) is greater than or equal to 1
[A] False

[Q] Threshold query (mean cell size >= 1) on CN1CCC(=C2c3ccccc3CC(=O)c3sccc32)CC1 [Ketotifen Fumarate] (concentration: 25 µM)
[A] False

[Q] Does mean cell size meet or surpass 1 for CC(=O)Nc1ccc(O)cc1 [Acetaminophen] (concentration: 25 µM) ?
[A] True

[Q] hey, is mean cell size for this one >= 1? Cc1cc(C2CCCCC2)n(O)c(=O)c1 [Ciclopirox] (concentration: 2.5 µM)
[A] True

[Q] Exam item: decide whether the reported mean cell size for Brc1c(NC2=NCCN2)ccc2nccnc12 [Brimonidine] (concentration: 25 µM) is at least 1.
[A] False

[Q] mean cell size >= 1 for Cc1nc(Nc2ncc(C(=O)Nc3c(C)cccc3Cl)s2)cc(N2CCN(CCO)CC2)n1 [Dasatinib] (concentration: 2.5 µM) ?
[A] False

[Q] Threshold query (mean cell size >= 1) on Cc1cn([C@H]2C=C[C@@H](CO)O2)c(=O)[nH]c1=O [Stavudine] (concentration: 25 µM)
[A] True

[Q] Has CCN[C@H]1C[C@H](C)S(=O)(=O)c2sc(S(N)(=O)=O)cc21 [Dorzolamide·HCl] (concentration: 25 µM) a recorded mean cell size greater than or equal to 1?
[A] False

[Q] Check the entry CC(C)Cn1cnc2c(N)nc3ccccc3c21 [Imiquimod] (concentration: 25 µM) : does mean cell size equal or exceed 1?
[A] False

[Q] Hi, just wondering whether COc1cc(C)c(/C=C/C(C)=C/C=C/C(C)=C/C(=O)O)c(C)c1C [Acitretin] (concentration: 25 µM) shows mean cell size of 1 or higher.
[A] False
